# Tested on: Klebsiella pneumoniae
# assay_method_text: Antibacterial activity against KPC-2 producing multidrug-resistant Klebsiella pneumoniae clinical isolate 15-3 assessed as inhibition of bacterial growth incubated for 18 to 20 hrs by two fold serial dilution assay
# Assay type: functional
# cond: time 18-20 hrs
Answer each item with its documented MIC.
Numbers only, in µg/mL.

compound | system_name | recorded_measurement
Nc1nc(/C(=N/OC(C(=O)O)C2CCCCC2)C(=O)N[C@@H]2C(=O)N3C(C(=O)O)=C(CSCCNC(=O)c4ccc(O)c(O)c4Cl)CS[C@H]23)c(Br)s1.O=C(O)C(F)(F)F (stereo partly specified) | Klebsiella pneumoniae | 8

Give MIC for each of the items listed below.
1. CC(C)(O/N=C(\C(=O)N[C@@H]1C(=O)N2C(C(=O)O)=C(CSCCOCCNC(=O)c3ccc(O)c(O)c3Cl)CS[C@H]12)c1csc(N)n1)C(=O)O.O=C(O)C(F)(F)F
2. C[C@@](O/N=C(\C(=O)N[C@@H]1C(=O)N2C(C(=O)O)=C(CSCCNC(=O)c3ccc(O)c(O)c3Cl)CS[C@H]12)c1nc(N)sc1Cl)(C(=O)O)C(F)(F)F.O=C(O)C(F)(F)F
3. C[C@](O/N=C(\C(=O)N[C@@H]1C(=O)N2C(C(=O)O)=C(CSCCNC(=O)c3ccc(O)c(O)c3Cl)CS[C@H]12)c1nc(N)sc1Cl)(C(=O)O)C(F)(F)F.O=C(O)C(F)(F)F
4. Nc1nc(/C(=N/OC(C(=O)O)C2CCCCC2)C(=O)N[C@@H]2C(=O)N3C(C(=O)O)=C(CSCCNC(=O)c4ccc(O)c(O)c4Cl)CS[C@H]23)c(Cl)s1.O=C(O)C(F)(F)F (stereo partly specified)

1. 8
2. 0.5
3. 0.5
4. 2

###

Answer each item with its documented MIC.
# Tested on: Pseudomonas aeruginosa
# assay_method_text: Antibacterial activity against IMP-4 producing multidrug-resistant Pseudomonas aeruginosa clinical isolate 19-17 assessed as inhibition of bacterial growth incubated for 18 to 20 hrs by two fold serial dilution assay
# Assay type: functional
# cond: time 18-20 hrs
One number for each entry, in µg/mL.

molecule | system_name | reading_unit | MIC
CC(C)[C@H](O/N=C(\C(=O)N[C@@H]1C(=O)N2C(C(=O)O)=C(CSCCNC(=O)c3ccc(O)c(O)c3Cl)CS[C@H]12)c1csc(N)n1)C(=O)O.O=C(O)C(F)(F)F | Pseudomonas aeruginosa | µg/mL | 0.25
Nc1nc(/C(=N/OC(C(=O)O)C2CCCCC2)C(=O)N[C@@H]2C(=O)N3C(C(=O)O)=C(CSCCNC(=O)c4ccc(O)c(O)c4Cl)CS[C@H]23)c(Br)s1.O=C(O)C(F)(F)F (stereo partly specified) | Pseudomonas aeruginosa | µg/mL | 0.5
Nc1nc(/C(=N/OC(C(=O)O)C2CCOCC2)C(=O)N[C@@H]2C(=O)N3C(C(=O)O)=C(CSCCNC(=O)c4ccc(O)c(O)c4Cl)CS[C@H]23)cs1.O=C(O)C(F)(F)F (stereo partly specified) | Pseudomonas aeruginosa | µg/mL | 8

Give MIC for each of the items listed below.
1. C[C@@](O/N=C(\C(=O)N[C@@H]1C(=O)N2C(C(=O)O)=C(CSCCNC(=O)c3ccc(O)c(O)c3Cl)CS[C@H]12)c1nc(N)sc1Cl)(C(=O)O)C(F)(F)F.O=C(O)C(F)(F)F
2. Nc1nc(/C(=N/O[C@@H](C(=O)O)C2CCC(F)(F)CC2)C(=O)N[C@@H]2C(=O)N3C(C(=O)O)=C(CSCCNC(=O)c4ccc(O)c(O)c4Cl)CS[C@H]23)cs1.O=C(O)C(F)(F)F
3. C[C@](O/N=C(\C(=O)N[C@@H]1C(=O)N2C(C(=O)O)=C(CSCCNC(=O)c3ccc(O)c(O)c3Cl)CS[C@H]12)c1nc(N)sc1Cl)(C(=O)O)C(F)(F)F.O=C(O)C(F)(F)F
4. C[C@@H](O)[C@H]1C(=O)N2C(C(=O)O)=C(S[C@@H]3CN[C@H](C(=O)N(C)C)C3)[C@H](C)[C@H]12 [MEROPENEM]
5. Nc1nc(/C(=N/OC(C(=O)O)C2CCC(F)(F)CC2)C(=O)N[C@@H]2C(=O)N3C(C(=O)O)=C(CSCCNC(=O)c4ccc(O)c(O)c4Cl)CS[C@H]23)ns1.O=C(O)C(F)(F)F (stereo partly specified)
6. Cc1sc(N)nc1/C(=N/OC(C(=O)O)C1CCC(F)(F)CC1)C(=O)N[C@@H]1C(=O)N2C(C(=O)O)=C(CSCCNC(=O)c3ccc(O)c(O)c3Cl)CS[C@H]12.O=C(O)C(F)(F)F (stereo partly specified)
7. CC(C)(C)C1CCC(C(O/N=C(\C(=O)N[C@@H]2C(=O)N3C(C(=O)O)=C(CSCCNC(=O)c4ccc(O)c(O)c4Cl)CS[C@H]23)c2csc(N)n2)C(=O)O)CC1.O=C(O)C(F)(F)F (stereo partly specified)

1. 0.06
2. 0.25
3. 0.06
4. 32
5. 1
6. 0.25
7. 0.5

Please look up its MIC: Nc1nc(/C(=N/OC(C(=O)O)C2CCC2)C(=O)N[C@@H]2C(=O)N3C(C(=O)O)=C(CSCCNC(=O)c4ccc(O)c(O)c4Cl)CS[C@H]23)cs1.O=C(O)C(F)(F)F (stereo partly specified)
0.5
